Test system: chloroquine-resistant W2 strain of Plasmodium falciparum
assay text: Antiplasmodial activity, growth inhibition by flow cytometry
Assay type: cell-based
experimental context: Plasmodium falciparum, W2, 48 h
reported metric: pIC50
In textbook form, pIC50 equals minus log to base ten of the concentration in mol/L.

Q. Look up pIC50: CCN(CC)CCCC(C)Nc1ccnc2cc(Cl)ccc12 (stereo not shown) [CQ, Chloroquine, reference compound]
A. 7.10

---

assay text: Cytotoxicity assay (resazurin cell viability)
Assay type: cell-based
experimental context: African green monkey; mammalian Vero cells, 24 h incubation, resazurin
reported metric: IC50 at 24 h

Some solved cases for reference:
Q. What value of IC50 at 24 h has been reported for the following compound? "O=C1c2ccc(N3CCN(CCO)CC3)cc2C(=O)N1CCCNc1ccnc2cc(Cl)ccc12"
A. < 25.3 µM

Q. Look up IC50 at 24 h for this compound: "O=C1c2ccc(N3CCOCC3)cc2C(=O)N1CCCCNc1ccnc2cc(Cl)ccc12"
A. < 26.9 µM

New cases:
Q. Look up IC50 at 24 h for this compound: "O=C1c2ccc(N3CCCCC3)cc2C(=O)N1CCCCNc1ccnc2cc(Cl)ccc12"
A. < 27 µM

Q. Endpoint output: IC50 at 24 h of "O=C1c2ccc(N3CCOCC3)cc2C(=O)N1CCCCCCNc1ccnc2cc(Cl)ccc12" . Value?
A. < 25.4 µM

Q. Please report the recorded IC50 at 24 h for "O=C1c2ccc(N3CCOCC3)cc2C(=O)N1CCNc1ccnc2cc(Cl)ccc12" .
A. < 28.6 µM

Q. Look at this compound and give its reported IC50 at 24 h. "O=C1c2ccc(N3CCN(CCO)CC3)cc2C(=O)N1CCCCNc1ccnc2cc(Cl)ccc12"
A. < 24.6 µM

Q. Given the compound "O=C1c2cccc(N3CCOCC3)c2C(=O)N1CCNc1ccnc2cc(Cl)ccc12" , what is its reported IC50 at 24 h?
A. < 28.6 µM

Q. Need IC50 at 24 h, item "O=C1c2ccc(N3CCN(CCO)CC3)cc2C(=O)N1CCNc1ccnc2cc(Cl)ccc12"
A. < 26 µM

Q. Data request, read-out IC50 at 24 h, for "O=C1c2ccc(N3CCN(CCO)CC3)cc2C(=O)N1CCCCCCNc1ccnc2cc(Cl)ccc12"
A. < 23.3 µM

---

System: chloroquine-resistant W2 strain of Plasmodium falciparum
assay text: Antiplasmodial activity, growth inhibition by flow cytometry
Format: cell-based
experimental context: chloroquine-resistant W2 strain, 48 h incubation; read-out: IC50
reported metric: pIC50
Please express pIC50 as -log10 of the molar concentration.

Take a look at these entries with their results.
Q. Return pIC50 measured with chloroquine-resistant W2 strain of Plasmodium falciparum given this compound: "O=C1c2ccc(N3CCCCC3)cc2C(=O)N1CCCCCCNc1ccnc2cc(Cl)ccc12"
A. 6.91

Q. Fill in the recorded pIC50 for this compound, with chloroquine-resistant W2 strain of Plasmodium falciparum as test system: "O=C1c2cccc(N3CCCCC3)c2C(=O)N1CCNc1ccnc2cc(Cl)ccc12"
A. 6.80

Q. // fetch chloroquine-resistant W2 strain of Plasmodium falciparum pIC50 for "O=C1c2ccc(N3CCN(CCO)CC3)cc2C(=O)N1CCCNc1ccnc2cc(Cl)ccc12"
A. 8.22

Q. Recorded pIC50 for "O=C1c2ccc(N3CCCCC3)cc2C(=O)N1CCNc1ccnc2cc(Cl)ccc12" with chloroquine-resistant W2 strain of Plasmodium falciparum, please?
A. 6.79

---
Q. Lab note: need pIC50 with chloroquine-resistant W2 strain of Plasmodium falciparum for entry "O=C1c2cccc(N3CCCCC3)c2C(=O)N1CCCCNc1ccnc2cc(Cl)ccc12" , please look it up.
A. 7.29
